assay explanation: Cytotoxicity, resazurin assay
Type: cell-based, human
study conditions: human, A549 lung carcinoma cells, max tested 200 μM
assay readout: IC50 at 48 h

| compound | assay readout | measured result |
| --- | --- | --- |
| CCCCCCCC1CC(=O)OC2C(OC(CCCCCCC)CC(=O)O1)OC(C)C(O)C2O (stereo not drawn) [Compound 5α] | IC50 at 48 h | > 200 µM |
| CCCCCCC[C@H](CC(=O)O)OC(=O)C[C@@H](CCCCCCC)O[C@@H]1O[C@@H](C)[C@H](O)[C@@H](O)[C@H]1O [Compound 3, RhaC10C10] | IC50 at 48 h | > 200 µM |

Consider the additional compound presented here.
Would you mind telling me what IC50 at 48 h value was observed for CCCCCCC[C@H](CC(=O)O)OC(=O)C[C@@H](CCCCCCC)O[C@@H]1O[C@H](CO)[C@@H](O)[C@H](O)[C@H]1O [Compound 2, ananatoside B] ?
> 200 µM

---

assay explanation: Cytotoxicity, resazurin assay
Type: cell-based, human
study conditions: human, WS1 normal skin fibroblasts, max tested 200 μM
assay readout: IC50 at 48 h

| compound | IC50 at 48 h |
| --- | --- |
| CCCCCCCC1CC(=O)OC2C(OC(CCCCCCC)CC(=O)O1)OC(C)C(O)C2O (stereo not drawn) | > 200 µM |
| CCCCCCC[C@H](CC(=O)O)OC(=O)C[C@@H](CCCCCCC)O[C@@H]1O[C@H](CO)[C@@H](O)[C@H](O)[C@H]1O [Compound 2, ananatoside B] | > 200 µM |

Okay, next one:
I have this compound here, "CCCCCCC[C@H](CC(=O)O)OC(=O)C[C@@H](CCCCCCC)O[C@@H]1O[C@@H](C)[C@H](O)[C@@H](O)[C@H]1O" , and I need its recorded IC50 at 48 h.
> 200 µM

From: paper PMC8171317
